Biological target: TNIK (Homo sapiens)
Construct: purchased Promega V4158
Sequence (Q9UKE5 1-367 limits assumed): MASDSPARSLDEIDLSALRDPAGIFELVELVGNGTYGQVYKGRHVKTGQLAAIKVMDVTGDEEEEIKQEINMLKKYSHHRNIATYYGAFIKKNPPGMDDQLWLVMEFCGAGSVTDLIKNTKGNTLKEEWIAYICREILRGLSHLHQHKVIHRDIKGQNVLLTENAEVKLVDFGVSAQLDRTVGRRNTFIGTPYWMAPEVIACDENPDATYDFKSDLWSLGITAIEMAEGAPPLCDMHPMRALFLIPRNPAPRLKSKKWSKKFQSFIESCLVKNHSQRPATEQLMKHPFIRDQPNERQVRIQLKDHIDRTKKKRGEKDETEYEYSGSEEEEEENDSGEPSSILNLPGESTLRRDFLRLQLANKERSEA
Experiment: ADP-Glo Kinase Assay, inhibition activity on TNIK
Type: biochemical
Conditions: read-out: TNIK
pIC50: −log10 of the molar value.

compound	value-comparator	pIC50
O=C(Nc1ccc(-c2ccccc2)c2c1C(=O)NC2)c1cccc(F)c1 [Example 130]	<	4.70
CC(=O)Nc1ccccc1C(=O)Nc1ccc(-c2ccccc2)c2c1C(=O)NC2 [Example 106]	<	4.70
O=C(Nc1ccc(Nc2cccnc2)c2c1C(=O)NC2)c1ccc(F)cc1 [Example 427]	=	6.21
Cc1nc2cccc(-c3ccc(NC(=O)c4ccc(NCCN5CCCC5)cc4)c4c3CNC4=O)c2o1 [Example 377]	=	6.44
COc1cccc(-c2ccc(NC(=O)c3ccc(NCCCN4CCCCC4)cc3)c3c2CNC3=O)c1OC [Example 308]	=	7.28
Cc1cc(NCCN2CCCC2)ccc1C(=O)Nc1ccc(-c2ccccc2)c2c1C(=O)NC2 [Example 309]	=	5.32
O=C(Nc1ccc(-c2ccc(Cl)c(Cl)c2)c2c1C(=O)NC2)c1ccccc1 [Example 20]	<	4.70
CCNC(=O)Nc1ccc(-c2ccccc2)c2c1C(=O)NC2 [Example 236]	=	6.24
O=C(Nc1ccc(-c2cc(F)ccc2F)c2c1C(=O)NC2)c1ccccc1 [Example 32]	=	6.00
Cc1cccc(Nc2ccc(NC(=O)c3ccc(NCCCN4CCCCC4)cc3)c3c2CNC3=O)c1C [Example 472]	=	6.39
CC(=O)c1ccccc1-c1ccc(NC(=O)c2ccccc2)c2c1CNC2=O [Example 11]	=	5.02
NCCNc1ccc(C(=O)Nc2ccc(Nc3ccccc3)c3c2C(=O)NC3)cc1 [Example 481]	=	6.70
O=C(Nc1ccc(C(=O)N2CCCC2)c2c1C(=O)NC2)c1ccc(F)cc1 [Example 391]	<	4.70
COc1ccccc1-c1ccc(NC(=O)c2ccc(NCCN3CCCC3)cc2)c2c1CCNC2=O [Example 402]	=	5.62
O=C(Nc1ccc(C2CC2)c2c1C(=O)NC2)c1ccccc1 [Example 173]	=	6.12
O=C(Nc1ccc(-c2ccccc2)c2c1C(=O)NCC2)c1ccccc1 [Example 398]	=	5.48
O=C(Nc1ccc(-c2cncs2)c2c1C(=O)NC2)c1ccccc1 [Example 51]	=	6.36
CC(=O)Nc1ccc(C(=O)Nc2ccc(Nc3ccccc3)c3c2C(=O)NC3)cc1 [Example 435]	=	6.68
O=C(Nc1ccc(Nc2ccccc2)c2c1C(=O)NC2)c1ccc(NCCN2CCOCC2)cc1 [Example 442]	=	6.82
O=C(Nc1cccc2c1C(=O)NC2)c1ccc(NCCN2CCCC2)cc1 [Example 346]	=	5.21
CC(=O)Nc1ccc(C(=O)Nc2ccc(-c3ccc(F)cc3)c3c2C(=O)NC3)cc1 [Example 124]	=	6.77
O=C(Nc1ccc(Nc2cccc(Cl)c2)c2c1C(=O)NC2)c1ccc(NCCN2CCCC2)cc1 [Example 455]	=	6.70
COc1ccc(-c2ccc(NC(=O)c3ccccc3)c3c2CNC3=O)c(OC)c1 [Example 175]	=	5.52
CCCOc1cccc(-c2ccc(NC(=O)c3ccccc3)c3c2CNC3=O)c1 [Example 44]	<	4.70
